Entries and their growth inhibition
Protocol Summary: NCI Yeast Anticancer Drug Screen. Data for the rad50 strain (AID 155);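 also: 0% = growth of vehicle-only cultures of the same strain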
Experimental Parameters: S. cerevisiae rad50 strain growth inhibition; at 50.0 µM; active compounds read high
Compounds without any hit were thinned out: in the full panel of roughly 79,000, 15% have a hit.

# Molecule, growth inhibition, %
data = [
    ("O=C(Nc1ccc(S(=O)(=O)NC2CCCCC2)cc1)OC1CCCCCC1", 2.6),
    ("O=C(CCC/C(CC(=O)c1ccc(Cl)cc1)=N\\NC(=O)c1cc2ccccc2cc1O)Nc1cccc([N+](=O)[O-])c1", 52),
    ("COC(=O)C1(C)CCCC2(C)C1CCC13OC1C1(C(C)C)OC1CC23 (stereo not given)", 5.1),
    ("COCc1nc2c(=O)[nH]c(N)nc2[nH]c1=O", 2.55),
    ("CCB1OC2C(COC(C)=O)OC(OC(C)=O)C2O1 (stereo not given)", -7.4),
    ("O=S(=O)(c1ccccc1)c1ccc(CI)cc1", 15.8),
    ("Cc1cc(C)nc(NS(=O)(=O)c2ccc(NC(=O)c3cccc4c(Nc5ccc(S(=O)(=O)N=C(N)N)cc5)c5ccccc5nc34)cc2)n1", 0.75),
    ("CC(=O)/C(=C\\n1c(=S)[nH]c2ccc([N+](=O)[O-])cc21)C(=O)Nc1ccccc1C", 2.1),
    ("O=C(O)C1C=CCN1 (stereo not given)", 0.8),
    ("CCCCCC/C=C/CCCCCCCc1cccc(OC)c1 (tested in a mixture with another compound)", 3.85),
]

---

Protocol Summary: NCI Yeast Anticancer Drug Screen. Data for the sgs1 mgt1 strain (AID 161);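 also: 0% = growth of cultures given vehicle only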
Experimental Parameters: S. cerevisiae sgs1 mgt1 strain, at 50.0 µM, active compounds read high
This is part of a sample that, as a whole, favours compounds with a hit. Of some 79,000 tested, about 15% had one in any assay.
Parameter: growth inhibition. Scope: all listed entries.

# Compound, growth inhibition / %
measured = [
    ("CC(=O)c1cccc(NC(=O)OCC2CC3C=CC2C3)c1 (stereo not drawn)", 45.9),
    ("COc1ccc(-c2cc(=O)c3cc(C)c(C)c(C(=O)O)c3o2)cc1", -5.4),
    ("CC(=O)OCCc1nnnn1C", -14.6),
    ("O=C(NCc1ccco1)Nc1ccc(Cl)cc1", 0.6),
    ("Nc1ncnc2c1nnn2CCCCCC(=O)O", 21.8),
    ("CC(C)(C)c1ccc(-c2nc3ccc([N+](=O)[O-])cc3c(=O)o2)cc1", 35),
    ("C/C(=N\\N)C1C(=O)c2ccccc2C1=O", 13.7),
    ("CCCC(O)C(C)[N+](=O)[O-] (stereo not drawn)", -0.65),
    ("O=C(O)c1oc2cccc3c2c1CCC3", 5.4),
    ("O=C(O)c1ccc(O)c2ccccc12", -15.4),
    ("Cn1c(=O)c2c(nc(NN)n2C)n(C)c1=O", -2.65),
    ("N#Cc1ccc([N+](=O)[O-])n1CCO", 35),
    ("O=C1OC(c2ccccc2)(c2ccc(Cl)cc2)CC1/C=C(\\c1ccccc1)c1ccc(Cl)cc1 (stereo not drawn)", 6.6),
]

---

Protocol Summary: NCI Yeast Anticancer Drug Screen. Data for the cln2 rad14 strain (AID 165);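 also: 0% = growth equal to vehicle treated cultures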
Experimental Parameters: S. cerevisiae cln2 rad14 strain, at 50.0 µM, active compounds read high
The panel holds about 79,000 compounds, 15% with a hit somewhere; the sample as a whole holds those more often.
Quantity: growth inhibition (%)

# Compound, Quantity, Endpoint Result
rows = [
    ("CO/N=C(\\C(=O)N(C)n1cnnc1)c1csc(NC(c2ccccc2)(c2ccccc2)c2ccccc2)n1", "growth inhibition", 25.1),
    ("O=P(O)(O)c1ccccc1Br", "growth inhibition", -15.8),
    ("C=C(CCCC(C)OC(C)OCC)[Si](C)(C)C (stereo unspecified)", "growth inhibition", -7.15),
    ("Cc1c2ccccc2nc(CSCC(O)CO)[n+]1[O-] (stereo unspecified)", "growth inhibition", -55.6),
    ("c1ccc2c(c1)nc(NC1CCCC1)c1[nH]c(C3CCCC3)nc12", "growth inhibition", -10.3),
    ("COc1ccc2c(c1OC)C1(CCN(C)C)CC(O)CCC1C=C2 (stereo unspecified)", "growth inhibition", -4.6),
    ("CC1=C(CCC(=O)O)c2cc3nc(cc4[nH]c(cc5[nH]c(cc1n2)c(C)c5C(C)O)c(C)c4C(C)O)C(C)=C3CCC(=O)O (stereo unspecified)", "growth inhibition", 29.8),
    ("CC1=NOC2(C1)/C(=N/O)CCC/C2=N\\O (stereo unspecified)", "growth inhibition", 20.9),
    ("N#Cc1cc([N+](=O)[O-])ccc1NC(=O)C(=O)Nn1c(=S)[nH]c2ccccc2c1=O", "growth inhibition", 14.6),
    ("c1ccc(CNC(Cc2ccccc2)c2ccc(OCc3ccccc3)cc2)cc1 (stereo unspecified)", "growth inhibition", 11.8),
    ("CC(=O)NNC(=O)c1ccc(Br)cc1", "growth inhibition", -3.2),
]
